Tested on: KB
method-summary: Growth inhibition of human KB cells at 40 uM after 24 hrs by MTT assay relative to control
Assay type: functional
measurement-conditions: read-out: GI
Label satisfied when inhibition of growth at 40 µM >= 20%; otherwise not satisfied.

Does inhibition of growth at 40 µM meet or surpass 20% for CC(C)OP(=O)(OC(C)C)C1C(C#N)=C(N)Oc2c1cccc2C(C)(C)C (configuration not stated) ?
satisfied

Does inhibition of growth at 40 µM meet or surpass 20% for CCCCOP(=O)(OCCCC)C1C(C#N)=C(N)Oc2ccc(Br)cc21 (configuration not stated) ?
satisfied

Does inhibition of growth at 40 µM meet or surpass 20% for CCCCOP(=O)(OCCCC)C1C(C#N)=C(N)Oc2ccc([N+](=O)[O-])cc21 (configuration not stated) ?
satisfied

Does inhibition of growth at 40 µM meet or surpass 20% for CCOP(=O)(OCC)C1C(C#N)=C(N)Oc2c1cccc2C(C)(C)C (configuration not stated) ?
satisfied

Does inhibition of growth at 40 µM meet or surpass 20% for CCOP(=O)(OCC)C1C(C#N)=C(N)Oc2ccccc21 (configuration not stated) ?
satisfied

Does inhibition of growth at 40 µM meet or surpass 20% for CCCCOP(=O)(OCCCC)C1C(C#N)=C(N)Oc2ccccc21 (configuration not stated) ?
satisfied

Does inhibition of growth at 40 µM meet or surpass 20% for CCOP(=O)(OCC)C1C(C#N)=C(N)Oc2ccc(Br)cc21 (configuration not stated) ?
satisfied

Does inhibition of growth at 40 µM meet or surpass 20% for CCOP(=O)(OCC)C1C(C#N)=C(N)Oc2ccc([N+](=O)[O-])cc21 (configuration not stated) ?
not satisfied

Does inhibition of growth at 40 µM meet or surpass 20% for CC(C)OP(=O)(OC(C)C)C1C(C#N)=C(N)Oc2ccccc21 (configuration not stated) ?
not satisfied

Does inhibition of growth at 40 µM meet or surpass 20% for CC(C)OP(=O)(OC(C)C)C1C(C#N)=C(N)Oc2ccc([N+](=O)[O-])cc21 (configuration not stated) ?
satisfied

Does inhibition of growth at 40 µM meet or surpass 20% for CC(C)OP(=O)(OC(C)C)C1C(C#N)=C(N)Oc2ccc(Br)cc21 (configuration not stated) ?
satisfied
